# assay_explanation: Comparative PK of Int 1-4 versus gemcitabine in rat plasma (study i)
# Type: in vivo, Sprague-Dawley rats
# particulars: plasma, Sprague-Dawley rat, after iv Int 1-4 10.0 mg/kg
# Text: PK measurements: compare PK parameters C0, CL, Vdss, Cmax, tmax, t1/2, AUC(0-t), AUC(0-inf), MRT(0-t), MRT(0-inf) for Int 1-4 and gemcitabine.

item_smiles	AUC(0-t) / ng·h/mL
COc1cc(OC)c2oc(COC(=O)Nc3ccn([C@@H]4O[C@H](CO)[C@@H](O)C4(F)F)c(=O)n3)cc2c1	1990
Nc1ccn([C@@H]2O[C@H](CO)[C@@H](O)C2(F)F)c(=O)n1	2760

---

# assay_explanation: Human liver S9 stability
# Format: in vitro ADME
# particulars: human, liver S9, human liver S9, text value; read-out: intrinsic clearance value

item_smiles	microsomal CLint (µL/min/mg)
COc1cc(OC)c2oc(COC(=O)Nc3ccn([C@@H]4O[C@H](CO)[C@@H](O)C4(F)F)c(=O)n3)cc2c1	2.22

---

Reported MRT last values for the following compounds.
# assay_explanation: Int 1-4 dog plasma PK (study j)
# Type: in vivo
# particulars: male beagle dog, after iv Int 1-4 10 mg/kg (study j), read-out: MRT0-last
# Experimental: Objectives: to compare the plasma pharmacokinetics and stability of Int 1-4 in plasma following single intravenous infusion administration of t 1-4 at 10 mg/kg and 20 mg/kg in the male Beagle dog.
measured_quantity: MRT last

item_smiles	result
Nc1ccn([C@@H]2O[C@H](CO)[C@@H](O)C2(F)F)c(=O)n1	3.47 h
COc1cc(OC)c2oc(COC(=O)Nc3ccn([C@@H]4O[C@H](CO)[C@@H](O)C4(F)F)c(=O)n3)cc2c1	0.23 h

---

# assay_explanation: Compound 1 and gemcitabine plasma PK in the male cynomolgus monkey (study h)
# Format: in vivo
# particulars: plasma, after iv Compound 1 5 mg/kg, read-out: AUC0-inf
Reported AUC(0-inf) values for the following compounds.

item_smiles	AUC(0-inf) / µg·h/mL
COc1cc(OC)c2oc(COC(=O)Nc3ccn([C@@H]4O[C@H](CO)[C@@H](O)C4(F)F)c(=O)n3)cc2c1	4.4
Nc1ccn([C@@H]2O[C@H](CO)[C@@H](O)C2(F)F)c(=O)n1	0.007

---

# assay_explanation: Int 1-4 and gemcitabine comparative PK in male cynomolgus monkey (study g)
# Format: in vivo
# particulars: plasma, male cynomolgus monkey, after iv Int 1-4 5 mg/kg (study g); read-out: Vdss
measured_quantity: Vd

item_smiles	result
COc1cc(OC)c2oc(COC(=O)Nc3ccn([C@@H]4O[C@H](CO)[C@@H](O)C4(F)F)c(=O)n3)cc2c1	0.287 L/kg
Nc1ccn([C@@H]2O[C@H](CO)[C@@H](O)C2(F)F)c(=O)n1	0.349 L/kg

---

# assay_explanation: Int 1-4 and gemcitabine comparative PK in male cynomolgus monkey (study g)
# Assay type: in vivo
# particulars: plasma, male cynomolgus monkey, after iv Int 1-4 10 mg/kg (study g)

compound	clearance, mL/min/kg
COc1cc(OC)c2oc(COC(=O)Nc3ccn([C@@H]4O[C@H](CO)[C@@H](O)C4(F)F)c(=O)n3)cc2c1 [Int 1-4]	15

---

# assay_explanation: Comparative plasma PK of Int 1-4 versus gemcitabine in mouse (study a)
# Assay type: in vivo
# particulars: mouse; plasma, CD-1 mice, after iv gemcitabine 5.29 mg/kg
measured_quantity: C0 (ng/mL)

item_smiles	number
Nc1ccn([C@@H]2O[C@H](CO)[C@@H](O)C2(F)F)c(=O)n1	6430

---

# assay_explanation: Comparative dog plasma PK of Int 1-4 versus gemcitabine (study k)
# Assay type: in vivo
# particulars: male beagle dog, after iv Int 1-4 10 mg/kg (study k)
measured_quantity: half-life (h)

item_smiles	measured_quantity	number
Nc1ccn([C@@H]2O[C@H](CO)[C@@H](O)C2(F)F)c(=O)n1	half-life	1.6
COc1cc(OC)c2oc(COC(=O)Nc3ccn([C@@H]4O[C@H](CO)[C@@H](O)C4(F)F)c(=O)n3)cc2c1	half-life	0.52

---

# assay_explanation: Int 1-4 and gemcitabine comparative PK in male cynomolgus monkey (study g)
# Type: in vivo
# particulars: plasma, male cynomolgus monkey, after iv Int 1-4 5 mg/kg (study g)

molecule	half-life [min]
Nc1ccn([C@@H]2O[C@H](CO)[C@@H](O)C2(F)F)c(=O)n1 [Gemcitabine, gemcitabine]	9
COc1cc(OC)c2oc(COC(=O)Nc3ccn([C@@H]4O[C@H](CO)[C@@H](O)C4(F)F)c(=O)n3)cc2c1 [Int 1-4]	45

---

# assay_explanation: Comparative plasma PK of Compound 1 versus Int 1-4 in male CD-1 mice (study b)
# Format: in vivo
# particulars: male, CD-1, mouse, iv, 10 mg/kg, after iv Int 1-4 10.0 mg/kg, Formulation 1, read-out: AUC0-inf

item_smiles	AUC(0-inf), ng·h/mL
COc1cc(OC)c2oc(COC(=O)Nc3ccn([C@@H]4O[C@H](CO)[C@@H](O)C4(F)F)c(=O)n3)cc2c1	3630
Nc1ccn([C@@H]2O[C@H](CO)[C@@H](O)C2(F)F)c(=O)n1	120

---

# assay_explanation: Liver microsomal stability, monkey
# Format: in vitro ADME
# particulars: monkey liver microsomes

molecule	microsomal CLint
COc1cc(OC)c2oc(COC(=O)Nc3ccn([C@@H]4O[C@H](CO)[C@@H](O)C4(F)F)c(=O)n3)cc2c1 [Int 1-4]	40.8 µL/min/mg

---

# assay_explanation: Comparative dog plasma PK of Int 1-4 versus gemcitabine (study k)
# Format: in vivo
# particulars: male beagle dog, after iv Int 1-4 5 mg/kg (study k), read-out: AUC0-inf

item_smiles	unit_abbreviation	AUC(0-inf)
COc1cc(OC)c2oc(COC(=O)Nc3ccn([C@@H]4O[C@H](CO)[C@@H](O)C4(F)F)c(=O)n3)cc2c1	ng·h/mL	2730
Nc1ccn([C@@H]2O[C@H](CO)[C@@H](O)C2(F)F)c(=O)n1	ng·h/mL	2390

---

# assay_explanation: Mouse liver S9 stability
# Format: in vitro ADME
# particulars: mouse, liver S9, mouse liver S9, summary; read-out: S9 intrinsic clearance Clint
measured_quantity: microsomal CLint

molecule	measured_quantity	result
COc1cc(OC)c2oc(COC(=O)Nc3ccn([C@@H]4O[C@H](CO)[C@@H](O)C4(F)F)c(=O)n3)cc2c1 [Int 1-4]	microsomal CLint	< 2.5 µL/min/mg

---

# assay_explanation: Comparative plasma PK of Compound 1 versus Int 1-4 in male CD-1 mice (study b)
# Assay type: in vivo
# particulars: male, CD-1, mouse, iv, 23.2 mg/kg, after iv Compound 1 23.2 mg/kg, read-out: MRT0-last
Structures can show the parent of a compound that is named as a salt.

molecule	MRT last
Nc1ccn([C@@H]2O[C@H](CO)[C@@H](O)C2(F)F)c(=O)n1	66.6 min
COc1cc(OC)c2oc(COC(=O)Nc3ccn([C@@H]4O[C@H](COP(=O)(O)O)[C@@H](O)C4(F)F)c(=O)n3)cc2c1 [Compound 1, ammonium salt]	2.56 min
COc1cc(OC)c2oc(COC(=O)Nc3ccn([C@@H]4O[C@H](CO)[C@@H](O)C4(F)F)c(=O)n3)cc2c1	46.7 min

---

# assay_explanation: Comparative dog plasma PK of Int 1-4 versus gemcitabine (study k)
# Assay type: in vivo
# particulars: male beagle dog, after iv gemcitabine 5.29 mg/kg
measured_quantity: AUC(0-t) (ng·h/mL)

molecule	measured_quantity	unit_abbreviation	number
Nc1ccn([C@@H]2O[C@H](CO)[C@@H](O)C2(F)F)c(=O)n1 [Gemcitabine, gemcitabine]	AUC(0-t)	ng·h/mL	8230

---

# assay_explanation: Comparative dog plasma PK of Int 1-4 versus gemcitabine (study k)
# Format: in vivo
# particulars: male beagle dog, after iv gemcitabine 5.29 mg/kg, read-out: MRT0-inf

compound	MRT inf (h)
Nc1ccn([C@@H]2O[C@H](CO)[C@@H](O)C2(F)F)c(=O)n1 [Gemcitabine, gemcitabine]	2.5

---

# assay_explanation: Comparative PK of Int 1-4 versus gemcitabine in rat plasma (study i)
# Format: in vivo, Sprague-Dawley rats
# particulars: plasma, Sprague-Dawley rat, after iv gemcitabine

item_smiles	clearance (mL/min/kg)
Nc1ccn([C@@H]2O[C@H](CO)[C@@H](O)C2(F)F)c(=O)n1	4.36

---

# assay_explanation: Comparative plasma PK of Compound 1 versus Int 1-4 in male CD-1 mice (study b)
# Format: in vivo
# particulars: male, CD-1, mouse, iv, 10 mg/kg, after iv Int 1-4 10.0 mg/kg, Formulation 2, read-out: Cmax

compound	Cmax (ng/mL)
Nc1ccn([C@@H]2O[C@H](CO)[C@@H](O)C2(F)F)c(=O)n1 [Gemcitabine, gemcitabine]	93.6
